List of phenotypically active values.
test system: WPMY1-ACTB-RAB5A; assay: phenotypically active (imaging signature differs from DMSO and reproducible) at any of 0.3-9 uM (binary (1 = active, 0 = inactive)); higher = active; conditions: treatment time: 24 h
Provide a numeric answer; units are not to be included.

Identify the reported phenotypically active for the following entry. OC[C@H]1O[C@@H](n2cnc3c(NCc4ccco4)ncnc32)[C@H](O)[C@@H]1O [Kinetin riboside]
1

Identify the reported phenotypically active for the following entry. "CCCCc1nc(Cl)c(CO)n1Cc1ccc(-c2ccccc2-c2nnn[nH]2)cc1"
0

Identify the reported phenotypically active for the following entry. "C[C@@H]1O[C@@H](O[C@H]2C(=O)c3c(O)cc(O)cc3O[C@@H]2c2ccc(O)c(O)c2)[C@H](O)[C@H](O)[C@H]1O"
0

Identify the reported phenotypically active for the following entry. "CCCCOc1cc(C(=O)NCCN(CC)CC)c2ccccc2n1"
1
